assay: Toxoplasma gondii ME49Luc growth in HeLa cells, luciferase, no IFN-y, primary screen (AID 1259421); details: T. gondii ME49Luc in HeLa, 72 h, concentration not given here
Out of some 6,400 compounds screened, about 610 (9.5%) were called active. No stated cut-off is given here; in the data, active means activity change below about -70%; inconclusive means no clear call, values can overlap the other calls; inactive means above that. The entries come from a sample that favours actives as a whole.
Just give me one of these, please: TRUE (active), FALSE (inactive)

Request: Would you mind telling me which call this test gave C[C@@H]1O[C@@H](O[C@H]2C[C@@H](O)[C@]3(CO)C4C(CC[C@]3(O)C2)[C@@]2(O)CC[C@H](C3=CC(=O)OC3)[C@@]2(C)C[C@H]4O)[C@H](O)[C@H](O)[C@H]1O (some centres undefined) ?
Response: TRUE

Request: # fetch the recorded call for CC1(C)CC[C@]2(C(=O)O)CC[C@]3(C)[C@H](C(=O)C=C4[C@@]5(C)C=C(C#N)C(=O)C(C)(C)[C@@H]5CC[C@]43C)[C@@H]2C1 here
Response: TRUE

Request: Per the records of this test, what outcome belongs to CC(C)CC(NC(=O)C(Cc1ccccc1)NC(=O)CNC(=O)[C@H](C)NC(=O)C(N)Cc1ccc(O)cc1)C(=O)N[C@H](CCCN=C(N)N)C(=O)O (some centres undefined) ?
Response: FALSE

Request: Please indicate how the test categorized C[C@@H]1O[C@@H](O[C@@H]2C=C3CCC4C(CC[C@]5(C)[C@@H](c6ccc(=O)oc6)CC[C@]45O)[C@@]3(C)CC2)C(O)C(O)[C@H]1O (some centres undefined) .
Response: TRUE

Request: What did this assay record as the result for C#C[C@]1(O)CC[C@H]2[C@@H]3CCC4=CC(=O)CCC4=C3C=C[C@@]21CC ?
Response: TRUE

---
Request: Identify the outcome logged in this assay for the compound shown: CC(C)[C@]1(O)[C@@H](OC(=O)c2ccc[nH]2)[C@@]2(O)[C@@]3(C)C[C@]4(O)O[C@@]5([C@H](O)[C@@H](C)CC[C@]35O)[C@@]2(O)C41C
Response: FALSE

Request: Assay result, entry CC(C)(C)OC(=O)c1ncn2c1[C@@H]1CCCN1C(=O)c1c(Br)cccc1-2 — outcome?
Response: FALSE

Request: Per the records of this test, what outcome belongs to CCN(CC)CCOC1CCC2(C)C(=CCC3C4CCC(=O)C4(C)CCC32)C1 (centres undefined) ?
Response: FALSE

Request: Short answer needed: outcome of this test for CN1C(=O)N(C)C2C1N(C)C(=O)N2C (centres undefined) ?
Response: FALSE

Request: Call for entry CCCN1CCCC2Cc3[nH]ncc3CC21 (centres undefined) :
Response: FALSE

----------
test: Toxoplasma gondii ME49Luc growth in HeLa cells, luciferase, no IFN-y, primary screen (AID 1259421); settings: T. gondii ME49Luc in HeLa, 72 h, concentration not given here
The whole screen tested about 6,400 compounds, of which about 610 (9.5%) were called active. Rule as the data show it: active = activity change below about -70%; inconclusive = no clear call, values can overlap the other calls; inactive = above that. For the sample, actives were picked, then their nearest neighbours and some compounds at random.
Can you answer with just one of these options? active, inactive

Examples from the recorded data:
Request: Dear all, I need the recorded test outcome for OC1CC2CCCC(C1)N2Cc1ccccc1 (stereo not drawn) , thank you.
Response: inactive

Request: GET /call?item= O=C(Nc1ccncc1)C(=O)c1cn(Cc2ccc(Cl)cc2)c2ccccc12 returns the recorded outcome of this test.
Response: active

Request: // outcome(item) with item = C[N+]1(C)CCc2cc3c(cc2[C@H]1C1OC(=O)c2c1ccc1c2OCO1)OCO3 (stereo partly drawn)
Response: inactive

Request: Which outcome was assigned to C[C@]12CCC3[C@@H](CC[C@@H]4C[C@H](O)CC[C@]34C)[C@@H]1CCC2=O (stereo partly drawn) in this test?
Response: inactive

Request: # outcome recorded in this test, key = COC(=O)C=CC(=O)NC1CCC2(O)C3Cc4ccc(O)c5c4C2(CCN3CC2CC2)C1O5 (stereo not drawn)
Response: inactive

As a next step, examine the compound that follows.
Request: Fill in: this test's call for NC1=NC(=O)N2CC12 (stereo not drawn) is ___
Response: inactive
